biological target: Delta-type opioid receptor (Homo sapiens); assay: Antagonist activity at human opioid delta receptor expressed in HEK293 cells assessed as inhibition of DPDPE-induced [35S]GTP-gamma-S binding after 4 hrs by scintillation counting; format: functional, cell-based
Sequence (P41143 whole entry): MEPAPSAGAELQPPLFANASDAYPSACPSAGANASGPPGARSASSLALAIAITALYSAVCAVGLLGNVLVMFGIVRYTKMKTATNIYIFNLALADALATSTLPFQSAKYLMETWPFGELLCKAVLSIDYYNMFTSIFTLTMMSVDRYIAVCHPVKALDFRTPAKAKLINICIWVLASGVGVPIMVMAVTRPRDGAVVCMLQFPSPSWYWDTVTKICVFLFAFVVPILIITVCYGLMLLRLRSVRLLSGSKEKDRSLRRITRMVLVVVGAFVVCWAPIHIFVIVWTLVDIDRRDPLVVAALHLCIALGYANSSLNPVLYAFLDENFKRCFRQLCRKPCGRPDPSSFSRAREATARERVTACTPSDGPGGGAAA
The compounds listed here are annotated with their Kb.

Worked set:
- Compound: "Cc1cc(C)cc([C@H]2CCCN2Cc2ccc(Oc3ccc(C(N)=O)cc3F)cc2)c1"
  Kb: "220 nM"
- Compound: "CC1(C)CN(Cc2ccc(Oc3ccc(C(N)=O)cn3)cc2)[C@@H]1c1ccccc1"
  Kb: "338 nM"
- Compound: "NC(=O)c1ccc(Oc2ccc(CN3CCCC3c3cccnc3)cc2)nc1 (racemic)"
  Kb: "407 nM"
- Compound: "CC1(C)CN(Cc2ccc(Oc3ccc(C(N)=O)cn3)cc2)[C@H]1c1ccccc1"
  Kb: "> 1000 nM"
- Compound: "Cc1cc(C)cc([C@@H]2CCCN2Cc2ccc(Oc3ccc(C(N)=O)cc3F)cc2)c1 [ATICAPRANT]"
  Kb: "110 nM"
- Compound: "NC(=O)c1ccc(Oc2ccc(CN3CCC[C@H]3c3cccnc3)cc2)c(Cl)c1"
  Kb: "83.3 nM"
- Compound: "NC(=O)c1ccc(Oc2ccc(CN3CCC[C@@H]3c3cccc(F)c3)cc2)c(F)c1"
  Kb: "> 1000 nM"
- Compound: "NC(=O)c1ccc(Oc2ccc(CNCc3ccccc3)cc2)nc1"
  Kb: "60.3 nM"

Q. Request the reported Kb associated with NC(=O)c1ccc(Oc2ccc(CN3CCCC3c3ccccc3)cc2)nc1 (racemic)
A. 635 nM

Q. Request the reported Kb associated with NC(=O)c1ccc(Oc2ccc(CN3CCCC3c3cccc(F)c3)cc2)c(F)c1 (racemic)
A. 525 nM

Q. Request the reported Kb associated with NC(=O)c1ccc(Oc2ccc(CN3CCC[C@H]3c3cccc(F)c3)cc2)c(F)c1
A. 293 nM

Q. Request the reported Kb associated with CC(C)[C@@H](CN1CC[C@@](C)(c2cccc(O)c2)[C@@H](C)C1)NC(=O)[C@H]1Cc2ccc(O)cc2CN1C
A. 619 nM
